- Tested on: Influenza A virus
- ASSAY METHOD TEXT: Antiviral activity against Influenza A virus (A/goose/Guangdong/SH7/2013(H5N1)) infected in CEF cells assessed as reduction in virus-induced cytopathic effect incubated for 48 hrs by CCK-8 assay
- Format: functional, organism-based
QUANTITY: EC50

Challenge: Given the compound CCC(CC)O[C@@H]1C=C(C(=O)N[C@@H](C(=O)O)C(C)C)C[C@H](NCc2ccc(SC)cc2)[C@H]1NC(C)=O , what is its reported EC50?
Response given: > 100000 nM

Challenge: State the recorded EC50 for this entry: CCC(CC)O[C@@H]1C=C(C(=O)O)C[C@H](NCc2ccc(SC)cc2)[C@H]1NC(C)=O
Response given: 660 nM

Challenge: Request the reported EC50 associated with CCC(CC)O[C@@H]1C=C(C(=O)NCc2ccc(Cl)cc2)C[C@H](NCc2ccc(N3CCCC3)cc2)[C@H]1NC(C)=O
Response given: > 100000 nM

Challenge: Entry CCC(CC)O[C@@H]1C=C(C(=O)O)C[C@H](N)[C@H]1NC(C)=O [OSELTAMIVIR CARBOXYLATE] has what EC50?
Response given: 820 nM

###

Here we list molecules with their recorded pIC50 when tested on Neuraminidase (Influenza A virus (A/Memphis/1/1971(H3N2)), UniProt P03471).
Sequence (P03471 whole entry): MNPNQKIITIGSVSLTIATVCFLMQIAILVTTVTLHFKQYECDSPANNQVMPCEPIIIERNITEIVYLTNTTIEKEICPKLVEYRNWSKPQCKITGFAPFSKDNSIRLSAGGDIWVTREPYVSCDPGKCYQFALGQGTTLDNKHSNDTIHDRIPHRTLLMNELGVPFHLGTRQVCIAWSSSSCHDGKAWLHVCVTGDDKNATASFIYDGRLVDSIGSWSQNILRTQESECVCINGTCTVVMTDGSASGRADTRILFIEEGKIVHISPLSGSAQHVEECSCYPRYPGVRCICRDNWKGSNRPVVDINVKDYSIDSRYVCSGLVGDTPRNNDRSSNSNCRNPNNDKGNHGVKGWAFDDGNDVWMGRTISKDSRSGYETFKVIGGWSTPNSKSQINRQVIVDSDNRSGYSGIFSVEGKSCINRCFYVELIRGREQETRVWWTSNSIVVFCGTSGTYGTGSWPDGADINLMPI
// pIC50 here means minus log10 of the molar concentration (mol/L)

Example cases with answers are listed next.
CCC(CC)O[C@@H]1C=C(C(=O)N[C@@H](C(=O)O)C(C)C)C[C@H](NCc2ccc(N3CCCC3)cc2)[C@H]1NC(C)=O = 5.62
CCC(CC)O[C@@H]1C=C(C(=O)NCc2ccc(C(=O)O)cc2)C[C@H](NCc2ccc(N(CC)CC)cc2)[C@H]1NC(C)=O = 4.88
CCC(CC)O[C@@H]1C=C(C(=O)NCc2ccc(C(=O)O)cc2)C[C@H](NCc2ccc(N3CCCC3)cc2)[C@H]1NC(C)=O = 5.33
CCC(CC)O[C@@H]1C=C(C(=O)NCc2ccc(F)cc2)C[C@H](NCc2ccc(N3CCCC3)cc2)[C@H]1NC(C)=O = 4.31
CCC(CC)O[C@@H]1C=C(C(=O)O)C[C@H](NCc2ccc(SC)cc2)[C@H]1NC(C)=O = 5.08

Challenge: What value of pIC50 has been recorded for this entry: CCC(CC)O[C@@H]1C=C(C(=O)NCc2ccc(Cl)cc2)C[C@H](NCc2ccc(N3CCCC3)cc2)[C@H]1NC(C)=O
Response given: 6.03

###

# reported EC50; entries follow
- Tested on: Influenza A virus
- ASSAY METHOD TEXT: Antiviral activity against Influenza A virus (A/Chicken/Hebei/LZF/2014(H5N2)) infected in CEF cells assessed as reduction in virus-induced cytopathic effect incubated for 48 hrs by CCK-8 assay
- Assay type: functional, organism-based
Please reply with the bare figure in nM and do not write the unit itself.

Worked examples follow.
CCC(CC)O[C@@H]1C=C(C(=O)N[C@@H](C(=O)O)C(C)C)C[C@H](NCc2ccc(SC)cc2)[C@H]1NC(C)=O = 26600
CCC(CC)O[C@@H]1C=C(C(=O)O)C[C@H](NCc2ccc(SC)cc2)[C@H]1NC(C)=O = 480

Now for another entry.
Challenge: Would you mind telling me what EC50 value was observed for CCC(CC)O[C@@H]1C=C(C(=O)O)C[C@H](N)[C@H]1NC(C)=O [OSELTAMIVIR CARBOXYLATE] ?
Response given: 170

###

- ASSAY METHOD TEXT: Cytotoxicity against chicken CEF cells assessed as reduction in cell viability incubated for 48 hrs by CCK8 assay
- Type: cell-based, Gallus gallus
CC50 at 48 h values by entry

Some entries whose results are on file:
CCC(CC)O[C@@H]1C=C(C(=O)N[C@@H](C(=O)O)C(C)C)C[C@H](NCc2ccc(SC)cc2)[C@H]1NC(C)=O = > 200 µM
CCC(CC)O[C@@H]1C=C(C(=O)O)C[C@H](N)[C@H]1NC(C)=O [OSELTAMIVIR CARBOXYLATE] = > 200 µM
CCC(CC)O[C@@H]1C=C(C(=O)O)C[C@H](NCc2ccc(SC)cc2)[C@H]1NC(C)=O = > 200 µM

From here, focus on the item given below.
Challenge: CC50 at 48 h for CCC(CC)O[C@@H]1C=C(C(=O)NCc2ccc(Cl)cc2)C[C@H](NCc2ccc(N3CCCC3)cc2)[C@H]1NC(C)=O ?
Response given: 77.1 µM
